# MEASUREMENT_DESCRIPTION: Cytotoxicity, LDH assay, Caco-2 cells
# Type: cell-based, human
# CONDITION_INFO: human, Caco-2; 100 μg/mL, 24 h, mean ± SD of three; read-out: Cell viability Caco-2
EXPERIMENTAL_ENDPOINT: viability at 24 h, 100 μg/mL (%)
Field: numeric (%). Do not append units.

CC(=O)OC1CC2(C)C(C(OC(C)=O)CC3(C)C2C(O)C=C2C4C(C)C(C)(O)CC(OC(C)=O)C4(C)CCC23C)C(C)(C)C1O (centres unmarked)    49.6

Assign viability at 24 h, 100 μg/mL to the following record: CCC(C)C(=O)OC1C=C2C3C(C)C(C)(O)CC(OC(C)=O)C3(C)CCC2(C)C2(C)CC(OC(C)=O)C3C(C)(C)C(O)C(OC(C)=O)CC3(C)C12 (centres unmarked)
22.2
